# tested_target: PARP1 (Homo sapiens (Human), UniProt P09874)
# Sequence (P09874 whole entry, species assumed): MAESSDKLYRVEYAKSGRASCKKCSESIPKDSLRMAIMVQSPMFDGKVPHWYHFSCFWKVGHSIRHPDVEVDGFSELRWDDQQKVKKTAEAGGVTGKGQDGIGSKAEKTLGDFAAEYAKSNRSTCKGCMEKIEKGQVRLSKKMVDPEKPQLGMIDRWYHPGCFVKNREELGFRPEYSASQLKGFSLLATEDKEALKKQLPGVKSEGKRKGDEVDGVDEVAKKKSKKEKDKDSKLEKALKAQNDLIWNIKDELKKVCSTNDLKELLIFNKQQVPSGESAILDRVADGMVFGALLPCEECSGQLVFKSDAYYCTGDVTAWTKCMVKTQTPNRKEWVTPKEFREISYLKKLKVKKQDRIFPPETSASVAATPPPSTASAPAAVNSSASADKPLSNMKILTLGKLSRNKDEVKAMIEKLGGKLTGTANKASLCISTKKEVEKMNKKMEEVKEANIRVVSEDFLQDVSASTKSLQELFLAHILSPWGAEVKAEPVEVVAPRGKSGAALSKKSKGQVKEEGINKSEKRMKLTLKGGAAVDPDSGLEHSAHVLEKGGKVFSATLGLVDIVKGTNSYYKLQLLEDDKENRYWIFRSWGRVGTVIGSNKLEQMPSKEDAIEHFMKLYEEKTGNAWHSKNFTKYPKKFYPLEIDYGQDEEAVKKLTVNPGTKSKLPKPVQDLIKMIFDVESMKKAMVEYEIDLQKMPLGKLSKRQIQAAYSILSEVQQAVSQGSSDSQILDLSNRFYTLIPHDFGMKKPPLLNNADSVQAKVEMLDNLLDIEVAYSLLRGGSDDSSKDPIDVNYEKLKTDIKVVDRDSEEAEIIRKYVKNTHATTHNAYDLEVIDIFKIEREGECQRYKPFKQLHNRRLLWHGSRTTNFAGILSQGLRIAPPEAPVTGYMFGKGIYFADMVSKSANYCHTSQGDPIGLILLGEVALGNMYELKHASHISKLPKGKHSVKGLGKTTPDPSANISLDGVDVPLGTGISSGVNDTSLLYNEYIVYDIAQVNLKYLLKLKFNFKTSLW
# experimental_details: biochemical assay (FP Binding Assay PARP1), Table 2
pIC50: −log10 of the molar value.
quantity_measured: pIC50

QUERY: What value of pIC50 on PARP1 (Homo sapiens (Human), UniProt P09874) does CNC(=O)c1ccc(N2CCN(Cc3ccc4c(c3)NC(=O)C3(CC3)O4)CC2)c(F)n1 have?
RESULT: > 8.30

Sourced from patent US20250214980A1
